Entry source: PubChem BioAssay (NCI)

- Tested on: MCF7 breast
- assay_name: NCI-60 one-dose screen, 48 h (100 = growth as untreated, 0 = no growth, -100 = all killed)
- condition_details: 10 µM unless noted
The panel holds about 83,000 compounds, 20% with a hit somewhere; the sample as a whole holds those more often.
Consider the cut-off -60%. If the recorded growth is strictly smaller, the label is rule met; if not, the label is rule not met.

(Q) Bench note: check whether COc1ccc(C(=O)c2sc3nc4c(c(-c5cccnc5)c3c2N)CCCC4)cc1OC shows growth below -60%
(A) rule not met

(Q) Bench note: check whether COc1cccc(Nc2nc(SC)nc(-c3cccc([N+](=O)[O-])c3)c2C#N)c1 shows growth below -60%
(A) rule not met

(Q) Bench note: check whether CCCOc1cc2ccccc2cc1C(=O)Nc1nc(NC)c2c(ccc3nccc32)[nH]1 shows growth below -60%
(A) rule met

(Q) Bench note: check whether OCCN1CCN(c2nc(Nc3ccc(-c4nc5ccccc5[nH]4)cc3)c3cn[nH]c3n2)CC1 shows growth below -60%
(A) rule met

(Q) Bench note: check whether O=S(=O)(Nc1ccc(OC(F)F)cc1)c1ccc(-c2cnc(C3CC3)o2)cc1 shows growth below -60%
(A) rule not met
